Measure: melting point

| Compound | Endpoint result |
| --- | --- |
| Nc1nc2ccccc2c2c1ncn2COCCO | 210 to 212 °C |
| CC(C)(C)C(CS(=O)(=O)c1ccc(Oc2ccc(OC(F)(F)F)cc2)cc1)N(O)C=O (stereo not given) | 160 °C |
| O=C1CCC(c2ccc(-c3ccc(Cl)cc3)cc2)=NO1 | 190 to 192 °C |
| COc1cc(C)c(C(=O)c2c(C)cccc2OC)c(OC)c1OC | 84 °C |
| CC(=O)c1c(O)cccc1OCC(C)(O)Oc1ccc(Br)cc1 (stereo not given) | 102 to 103 °C |

----------
| Molecule | melting point |
| --- | --- |
| ClCc1ccc(OCc2cn3c(Cl)cccc3n2)cc1 | 114 to 115 °C |
| CC(=O)NC1CCC(NC(=O)Nc2ccc(C(F)(F)F)cc2)CC1 (stereo not given) | > 400 °C |
| Cc1nc(-c2cccc(Cn3ccc4nc(C(C)C)n(Cc5ccc6ccc(-c7noc(C)n7)cc6c5)c4c3=O)c2)no1 | 108 to 109 °C |
| CN=C1N(C)C(=O)CN1c1ccccc1 | 116 to 118 °C |
| OCc1ccc(CO)c(Br)c1 | 104 °C |
| COc1cc2c(-c3ccccc3)csc2c(Cl)c1Cl | 117 to 119 °C |
| CCOC(=O)Oc1ccc(S(=O)(=O)N2c3ccc(Cl)cc3-n3cccc3C2CC)cc1 (stereo not given) | 117 to 119 °C |
| Cc1cc(O)c(SCc2ccc(F)cc2)c(=O)o1 | 114 to 118 °C |
| Cc1cc(Cc2ccccc2)nc(Nc2ccc(-n3ccnc3CO)cc2)n1 | 95 to 98 °C |
| CCOC(=O)c1cc(-c2ccc(C#N)cc2)[nH]c1N | 228 to 229 °C |

----------
| Compound | melting point |
| --- | --- |
| C[C@]1(COc2ccc(N3CCC(Cc4cccc(OC(F)(F)F)c4)CC3)cc2)Cn2cc([N+](=O)[O-])nc2O1 | 187 to 190 °C |
| O=C(c1ccc(Nc2ccnc3cc(C(F)(F)F)ccc23)cc1)N1CCC(S(=O)c2ccc(F)cc2)CC1 (stereo not given) | 215 to 216 °C |
| Cc1cccc(N(CC(=O)OC(C)(C)C)C(=O)CN2C(=O)c3ccccc3C2=O)c1 | 166 °C |
| CON1CCC2(CC1)C(O)=C(c1c(C)cc(C)cc1C)C(=O)N2OC1CCCO1 (stereo not given) | 144 to 146 °C |
| CNC(=O)C(CNC(=O)c1ccccc1)NC(=O)OC(C)(C)C (stereo not given) | 222 to 223 °C |

----------
melting point: recorded values

| Compound | melting point |
| --- | --- |
| O=C(Nc1ccccc1F)c1ccc(CN2C(=O)C3(COc4cc5c(cc43)OCCO5)c3ccccc32)cc1 (stereo unspecified) | 245 to 251 °C |
| C#CCN(C)C(=O)N1CC(Oc2cccc(C(F)(F)F)c2)C1 | 71 to 73 °C |
| CC(C)(C)c1ccc(C(=O)Nc2cn3cc(-c4cccnc4)ccc3n2)cn1 | 272 to 274 °C |
| CCCN(CCC)c1c([N+](=O)[O-])cc(S(=O)(=O)N(C)C(=O)OC)cc1[N+](=O)[O-] | 90 to 94 °C |
| COCCCNC(=O)Nc1ccc(N2CCOCC2)cc1C(=O)NCC1CCN(C(c2ccccc2)c2ccccc2)CC1 | 175 to 176 °C |
| CCCCc1n[nH]c(CCCC)n1 | 50.5 to 51.5 °C |
| CCCCc1oc2ccccc2c1C(=O)NCc1ccc2c(-c3ccc(C)cc3)c(OCC#N)ccc2c1 | 114 to 117 °C |
| CC(C)N1C(=O)c2ccc(Cl)nc2C1=O | 122 to 123 °C |
| O=C(O)COc1cc(F)c(F)cc1C(=S)NCc1ccc(Br)cc1F | 206 to 209 °C |
| COC(=O)C(C)Oc1ccc(Oc2cnc3ccccc3n2)cc1 (stereo unspecified) | 110 to 115 °C |
| OC(CNC1=NCCN1)c1ccc(F)cc1 (stereo unspecified) | 153 °C |
| CCCc1cnc2c(NC(=O)c3c(Cl)cccc3Cl)cccc2c1-n1ccnc1 | 160 to 161 °C |
| COc1ccc(COc2cccnc2NC(=S)Nc2ccc(Cl)cc2)cc1 | 136 to 138 °C |
| COc1ccc(N2CC(CSCCCSc3ccnc(CNc4nc(C)nc(C)c4Cl)c3C)OC2=O)cc1 (stereo unspecified) | 161 to 164 °C |
| NC(=O)/C=C1\CCc2c(F)cc(Cl)cc21 | 171 to 173 °C |
| NC(=S)N1CCC(c2cccc(C(F)(F)F)c2)=N1 | 159 to 161 °C |
| Cc1c(CC2CCc3c(c4ccccc4n3C)C2=O)ncn1S(=O)(=O)N(C)C (stereo unspecified) | 122 to 124 °C |
| O=C1c2ccccc2-c2ncccc21 | 132 to 136 °C |
| COC(=O)c1ccc(Cl)c2nc(C(C)(C)C)oc12 | 130 to 131 °C |
| CC(=O)C=Cc1c(C)c(C)c(C)c2ccoc12 | 99 °C |
| CN1CCN(C2=Nc3ccccc3Cc3nccn32)CC1 | 123 to 124 °C |

----------
melting point: recorded values
Measure: melting point

| Molecule | Endpoint result |
| --- | --- |
| O=c1c2ccccc2cc2sccn12 | 135 to 136 °C |
| O=C1C(=O)c2ccccc2C2=C1SCC1(CCN(CC3CC3)CC1)O2 | 161 to 164 °C |
| O=C(CN1CCN(C(c2ccccc2)c2ccccc2)CC1)c1ccc(OCc2ccccc2)cc1 | 151 °C |
| CC1(N)CN(c2c(F)cc3c(=O)c(C(=O)O)cn(C4CC4)c3c2F)C1 | 298 to 300 °C |
| CC(C)C(NC(=O)c1ccc(C(=O)NC(CCC(=O)O)C(=O)O)cc1)C(=O)N1CCCC1C(=O)NC(C(=O)C(F)(F)F)C(C)C (mixture of isomers) | 74 to 76 °C |
| COc1c(C(=O)O)cc([N+](=O)[O-])c2ccccc12 | 102 to 104 °C |
| Nc1nc(-c2ccc(Cl)cc2)nc(N2CCCC2)n1 | 217 to 219 °C |
| CC(Oc1cc(C(F)(F)F)cc(C(F)(F)F)c1)C(=O)O (stereo not given) | 51 to 53 °C |
| COc1cc(C(=O)n2c3c(c4ccccc42)CC(C(=O)O)(C(=O)O)CC3)cc(OC)c1OC | 208 °C |
| Cc1cc(C)nc(C(N)=NO)n1 | 209 °C |
| CCn1c(C#N)ccc1-c1ccc2c(c1)C(C)(C)OC(=S)N2 | 212 to 213 °C |
| Clc1ccc2nc(Cl)c3nnc(-c4ccccc4)n3c2c1 | 305 to 307 °C |
| CCCCNc1cc(Cl)nnc1NN | 170 to 172 °C |
| COC(=O)Cc1ccccc1S(=O)(=O)NC(=O)Nc1nc(Cl)cc(Cl)n1 | 115 to 118 °C |
| CCCc1c(C(=O)C(C)C)c2ccc(C(=O)O)cc2n1Cc1ccccc1OC | 190 to 191 °C |
| COCCN1CCN(CCc2ccccc2Nc2ncnc3[nH]cc(C(=O)c4ccccc4)c23)CC1 | 192 to 193 °C |
| CC1=CC(c2ccc(Cl)c(Cl)c2)C2=C(CCCC2=O)N1 (stereo not given) | 199 to 201 °C |
| CC(=O)NC(C(=O)O)c1ccc2occc2c1 (stereo not given) | 230 to 232 °C |
| CC(C(=O)O)c1ccc2c(c1)C(=O)Cc1ccccc1C2 (stereo not given) | 134 to 136 °C |
| CC(NC(=O)OCc1ccccc1)C(=O)NC1C(C(=O)O)OC(n2cnc3c(NC(=O)c4ccccc4)ncnc32)C1O (stereo not given) | 154 to 156 °C |
| O=C(c1ccc(Cl)cc1)c1ccc(SC(F)(F)F)cc1 | 78 to 79 °C |
| CC(C)c1nc(-c2cccc3c2OCO3)cc(-c2ccc(F)cc2)c1C=C(Br)Br | 129 to 131 °C |
| Cc1ccc2c(c1)SC1(CCOC1=O)C2=O (stereo not given) | 122 to 124 °C |
| c1ccc(COC[C@H](CP(c2ccccc2)c2ccccc2)P(c2ccccc2)c2ccccc2)cc1 | 88 °C |
| CC(c1ccc2c(c1)C(=O)c1ccccc1C2=O)N1CCNCC1 (stereo not given) | 97.7 to 98.1 °C |
| Cc1oc(-c2ccc(O)cc2)nc1CCOc1ccc(N)cc1 | 184 to 185 °C |
| CC(C)NC(=O)N1CC(Oc2cccc(C(F)(F)F)c2)C1 | 150 to 152 °C |
| COc1ccc2c(c1)CCC(=O)N(C(C)=O)CCCC2=O | 156 to 158 °C |
| N#Cc1cnc2cc3ccccc3cc2c1Nc1ccc(F)c(Cl)c1 | 257 to 259 °C |
| Cc1nccc(C#N)c1OC1SCC(O)C(O)C1O (stereo not given) | 161 °C |
| Cc1c(C)c2c(c(C)c1NC(=O)CC(C)(C)C)C(c1ccc(C3OCCO3)cc1)CO2 (stereo not given) | 193 to 194 °C |
| CCN(CC)C(=O)c1ccn2nc(-c3ccccc3)c(-c3ccc(=O)n(C(C)C)n3)c2c1 | 157 to 158 °C |
| CCOC(=O)c1cc(C#N)c(C)nc1NC(C)CC (stereo not given) | 55 to 57 °C |
| O=C(CC1CCCCC1=O)c1ccc(Cl)cc1 (stereo not given) | 56 to 58 °C |
| O=C(Cc1cc(O)no1)OC(c1ccccc1)c1ccccc1 | 105 to 106 °C |
| COc1ccccc1N1CCN(CCCNC(=O)c2csc3c(=O)cc(-c4ccccc4)oc23)CC1 | 161 to 162 °C |
| CN(C)C(=O)c1c(-c2ccc(C(F)(F)F)cc2)ccc2ccccc12 | 184 to 186 °C |
| OCCN1CC=C(c2c[nH]c3ccccc23)CC1 | 164 to 165 °C |
| O=c1c2c(Cc3ccc(C(F)(F)F)cc3)n[nH]c2c2cccnc2n1-c1cccc(OC(F)(F)F)c1 | 227 to 231 °C |
| O=S(=O)(Nc1ccccc1OCc1csc(-c2ccccc2)n1)C(F)(F)F | 123 to 125 °C |

# credit: a melting point compilation (Tetko et al.; mined from patent text by program, amines drawn as free bases though some values may be those of a salt)
